# SYSTEM NAME: hNav1.7 (Homo sapiens)
# ASSAY OVERVIEW: Tritiated compound binding (LBA) to membranes from cells expressing hNav1.7 and the β1 subunit, competitive binding
# STATED CONDITIONS: competitive binding vs 100 pM [3H]compound, 18 h, room temperature, membranes with hNav1.7 and β1 subunit
pIC50: −log10 of the molar value.
PROPERTY LABEL: pIC50

O=C(O)[C@@H]1C[C@H](O)CN1C(=O)c1cc(C2CC2)c(OCC23CC4CC(CC(C4)C2)C3)cc1F [Example 161]    6.41
C[C@@H](c1cc(Cl)cc(Cl)c1)N1CCC(COc2cc(F)c(C(=O)N3CCC[C@H]3C(=O)O)cc2C2CC2)CC1 (single isomer, unassigned) [Example 79a]    7.33
CC1(COc2cc(F)c(C(=O)N3C[C@H](F)C[C@H]3C(=O)O)cc2C2CC2)CN([C@@H](c2ccccc2)c2cc(Cl)cc(Cl)c2)C1 (single isomer, unassigned)    7.64
O=C(c1cc(C2CC2)c(OCC23CC4CC(CC(C4)C2)C3)cc1F)N1CCC2CC21C(=O)O (stereo not shown)    6.54
C[C@H]1[C@H](F)CN(C(=O)c2cc(C3CC3)c(OCC34CC5CC(CC(C5)C3)C4)cc2F)[C@@H]1C(=O)O [Example 210b]    7.52
CC(c1cc(Cl)cc(Cl)c1)N1CCC(COc2cc(F)c(C(=O)N3[C@@H](C(=O)O)C[C@H]4CCC[C@H]43)cc2C2CC2)CC1 (stereo partly shown)    6.00

P. CC1(C)CCN(C(=O)c2cc(C3CC3)c(OCC34CC5CC(CC(C5)C3)C4)cc2F)C1C(=O)O (stereo in doubt)
Q. C[C@@H]1[C@H](F)CN(C(=O)c2cc(C3CC3)c(OCC34CC5CC(CC(C5)C3)C4)cc2F)[C@@H]1C(=O)O [Example 210a]
R. O=C(O)[C@@H]1C[C@@H](F)CN1C(=O)c1cc(C2CC2)c(OCC2CCN([C@@H](c3ccccc3)c3cc(Cl)cc(Cl)c3)CC2)cc1F (single isomer, unassigned)
Task: Arrange the 3 entries by pIC50 so the values rise. Would you mind listing the labels in the order requested?
Result: Q, P, R

P. O=C(O)[C@@H]1CCCN1C(=O)c1cc(C2CC2)c(OC2C3CC4CC(C3)CC2C4)cc1F (stereo partly shown)
Q. O=C(O)C1COCN1C(=O)c1cc(C2CC2)c(OCC23CC4CC(CC(C4)C2)C3)cc1F (stereo in doubt)
Task: I'm curious whether P or Q has the smaller pIC50 number. Which is it? Return value: the label identifying the chosen record.
Result: P

* * *

# SYSTEM NAME: hNav1.7 (Homo sapiens, UniProt Q15858)
# Sequence (Q15858 1-1977 isoform Q15858-3): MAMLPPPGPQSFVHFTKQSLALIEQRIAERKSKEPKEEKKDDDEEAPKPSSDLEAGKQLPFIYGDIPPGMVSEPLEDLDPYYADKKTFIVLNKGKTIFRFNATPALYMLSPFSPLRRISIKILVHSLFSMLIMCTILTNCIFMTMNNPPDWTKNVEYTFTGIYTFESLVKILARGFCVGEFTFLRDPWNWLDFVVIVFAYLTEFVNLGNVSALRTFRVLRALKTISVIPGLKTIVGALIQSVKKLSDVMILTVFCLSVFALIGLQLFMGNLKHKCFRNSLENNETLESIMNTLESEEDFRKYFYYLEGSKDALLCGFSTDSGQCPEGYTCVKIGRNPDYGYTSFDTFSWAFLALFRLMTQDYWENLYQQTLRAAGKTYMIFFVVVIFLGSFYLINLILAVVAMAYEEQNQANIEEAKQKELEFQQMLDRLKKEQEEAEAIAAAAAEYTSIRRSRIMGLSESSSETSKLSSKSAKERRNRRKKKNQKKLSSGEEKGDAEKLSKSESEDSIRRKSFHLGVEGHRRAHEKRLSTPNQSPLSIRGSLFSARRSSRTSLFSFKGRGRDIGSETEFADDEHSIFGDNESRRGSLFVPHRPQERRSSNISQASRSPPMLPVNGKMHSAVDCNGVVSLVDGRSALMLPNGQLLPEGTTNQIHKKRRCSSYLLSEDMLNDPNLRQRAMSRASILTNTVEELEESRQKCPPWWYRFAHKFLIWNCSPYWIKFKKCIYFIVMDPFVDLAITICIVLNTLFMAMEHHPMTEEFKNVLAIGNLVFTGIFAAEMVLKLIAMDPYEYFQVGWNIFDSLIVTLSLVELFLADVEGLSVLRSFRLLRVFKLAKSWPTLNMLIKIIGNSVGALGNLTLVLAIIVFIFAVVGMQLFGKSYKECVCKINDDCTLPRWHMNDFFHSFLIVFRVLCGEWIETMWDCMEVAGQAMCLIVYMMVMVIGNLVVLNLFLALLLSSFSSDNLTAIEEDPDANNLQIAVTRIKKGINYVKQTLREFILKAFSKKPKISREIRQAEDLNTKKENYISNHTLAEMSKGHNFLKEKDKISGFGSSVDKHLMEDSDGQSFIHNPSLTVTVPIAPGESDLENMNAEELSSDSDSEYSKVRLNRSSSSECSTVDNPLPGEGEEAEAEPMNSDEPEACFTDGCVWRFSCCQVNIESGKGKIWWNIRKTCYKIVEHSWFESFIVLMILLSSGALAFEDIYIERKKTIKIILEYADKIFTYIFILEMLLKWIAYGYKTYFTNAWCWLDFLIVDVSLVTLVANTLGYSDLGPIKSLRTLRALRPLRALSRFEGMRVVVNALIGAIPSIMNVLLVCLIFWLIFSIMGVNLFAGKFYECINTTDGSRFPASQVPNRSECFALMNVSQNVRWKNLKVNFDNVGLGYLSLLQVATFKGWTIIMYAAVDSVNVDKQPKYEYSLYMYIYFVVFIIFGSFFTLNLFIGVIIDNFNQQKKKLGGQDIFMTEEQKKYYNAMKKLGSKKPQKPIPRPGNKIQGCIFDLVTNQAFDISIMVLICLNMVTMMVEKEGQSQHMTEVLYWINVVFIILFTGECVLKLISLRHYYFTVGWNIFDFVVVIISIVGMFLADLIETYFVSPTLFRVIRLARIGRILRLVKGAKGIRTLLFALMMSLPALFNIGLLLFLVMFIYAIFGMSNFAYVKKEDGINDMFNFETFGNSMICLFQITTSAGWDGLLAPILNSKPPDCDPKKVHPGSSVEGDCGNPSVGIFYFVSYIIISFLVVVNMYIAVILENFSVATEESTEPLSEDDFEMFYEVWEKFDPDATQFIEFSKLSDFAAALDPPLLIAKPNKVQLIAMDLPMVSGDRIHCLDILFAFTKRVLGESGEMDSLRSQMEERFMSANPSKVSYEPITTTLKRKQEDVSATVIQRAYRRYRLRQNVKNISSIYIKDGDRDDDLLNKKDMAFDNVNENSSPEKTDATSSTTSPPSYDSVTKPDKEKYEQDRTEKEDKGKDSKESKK
# Sequence (Q07699 19-218 partner): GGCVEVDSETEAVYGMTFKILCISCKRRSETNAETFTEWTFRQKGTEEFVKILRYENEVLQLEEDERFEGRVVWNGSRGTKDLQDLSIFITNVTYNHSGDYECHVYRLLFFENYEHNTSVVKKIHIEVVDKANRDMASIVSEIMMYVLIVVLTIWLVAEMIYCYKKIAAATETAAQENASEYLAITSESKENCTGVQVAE
# ASSAY OVERVIEW: Tritiated compound binding (LBA) to membranes from cells expressing hNav1.7 and the β1 subunit, competitive binding
# STATED CONDITIONS: competitive binding vs 100 pM [3H]compound, 18 h, room temperature, membranes with hNav1.7 and β1 subunit
pIC50: −log10 of the molar value. Counter-ions that a name gives are not always drawn.
PROPERTY LABEL: pIC50

Worked cases, pIC50 given:
CO[C@H]1CCN(C(=O)c2cc(C3CC3)c(OCC34CC5CC(CC(C5)C3)C4)cc2F)[C@@H]1C(=O)O [Example 76]    7.06
O=C(O)[C@@H]1C[C@@H](F)CN1C(=O)c1cc(C2CC2)c(OCC2CCN([C@H](c3cc(Cl)cc(Cl)c3)C(F)(F)F)CC2)cc1F (single isomer, unassigned) [Example 140a]    7.85
O=C(O)C1CC=NN1C(=O)c1cc(C2CC2)c(OCC23CC4CC(CC(C4)C2)C3)cc1F (centres unmarked) [Example 96]    6.42
CC[C@H](C)[C@H](NC(=O)c1cc(C2CC2)c(OCC23CC4CC(CC(C4)C2)C3)cc1F)C(=O)O [Example 43]    7.08
CC1(COc2cc(F)c(C(=O)N3CCC[C@H]3C(=O)O)cc2C2CC2)CN(C(c2ccccc2)c2cc(Cl)cc(Cl)c2)C1 (some centres unmarked) [Example 28, trifluoroacetic acid salt]    7.75

I. COC1(C(F)(F)F)C[C@@H](C(=O)O)N(C(=O)c2cc(C3CC3)c(OCC34CC5CC(CC(C5)C3)C4)cc2F)C1 (some centres unmarked) [Example 214]
II. CC(C)[C@H](NC(=O)c1cc(C2CC2)c(OCC23CC4CC(CC(C4)C2)C3)cc1F)C(=O)O [Example 66]
Task: Of the two listed items, I and II , which carries the larger pIC50 figure? Bench note: the answer is the label of the chosen record.
Result: II

a. O=C(O)[C@@H]1CCC(=O)N1C(=O)c1cc(C2CC2)c(OCC23CC4CC(CC(C4)C2)C3)cc1F [Example 198]
b. C[C@@H](c1cc(Cl)cc(Cl)c1)N1CCC(COc2cc(F)c(C(=O)N3CSC[C@H]3C(=O)O)cc2C2CC2)CC1 [Example 159]
c. CC1(COc2cc(F)c(C(=O)N3CCC[C@H]3C(=O)O)cc2C2CC2)CN(c2cc(C(F)(F)F)c(Cl)cn2)C1 [Example 21, trifluoroacetic acid salt]
d. O=C(O)[C@@H]1CCCN1C(=O)c1cc(C2CC2)c(OCC2CCN(Cc3cc(Cl)ccc3C(F)(F)F)CC2)cc1F [Example 181]
e. O=C(O)[C@@H]1CCCN1C(=O)c1cc(Cl)c(Oc2cnc(OCC(F)(F)F)c(Cl)c2)cc1F [Example 217, trifluoroacetate]
Task: Sort by pIC50, descending. As an answer, provide the labels arranged in the order called for.
Result: d, b, c, a, e
